This collection of values is drawn from patent US20240400708A1.

# Target desc: feline FcRn complex (FcRn-α subunit and β-microglobulin), biotin labeled (feline)
# Protocol: SPR, pH 6
Measurement label: pKd
API: returns pKd as number; meaning -log10 of concentration in mol/L.

Param item = feline IgG1a D312P/S434Y (antibody, part only; not given: Variable domains, not shown: another chain or arm of the molecule) constant: ASTTAPSVFPLAPSCGTTSGATVALACLVLGYFPEPVTVSWNSGALTSGVHTFPAVLQASGLYSLSSMVTVPSSRWLSDTFTCNVAHPPSNTKVDKTVRKTDHPPGPKPCDCPKCPPPEMLGGPSIFIFPPKPKDTLSISRTPEVTCLVVDLGPDDSDVQITWFVDNTQVYTAKTSPREEQFNSTYRVVSVLPILHQPWLKGKEFKCKVNSKSLPSPIERTISKAKGQPHEPQVYVLPPAQEELSRNKVSVTCLIKSFHPPDIAVEWEITGQPEPENNYRTTPPQLDSDGTYFVYSKLSVDRSHWQRGNTYTCSVSHEALHYHHTQKSLTQSPGK ; retrieve measured pKd.
7.65

Param item = feline IgG1a T256I (antibody, part only; not given: Variable domains, not shown: another chain or arm of the molecule) constant: ASTTAPSVFPLAPSCGTTSGATVALACLVLGYFPEPVTVSWNSGALTSGVHTFPAVLQASGLYSLSSMVTVPSSRWLSDTFTCNVAHPPSNTKVDKTVRKTDHPPGPKPCDCPKCPPPEMLGGPSIFIFPPKPKDTLSISRIPEVTCLVVDLGPDDSDVQITWFVDNTQVYTAKTSPREEQFNSTYRVVSVLPILHQDWLKGKEFKCKVNSKSLPSPIERTISKAKGQPHEPQVYVLPPAQEELSRNKVSVTCLIKSFHPPDIAVEWEITGQPEPENNYRTTPPQLDSDGTYFVYSKLSVDRSHWQRGNTYTCSVSHEALHSHHTQKSLTQSPGK ; retrieve measured pKd.
6.94

Param item = feline IgG1a S252H/S428M/D312P (ID No. 221) (antibody, part only; not given: Variable domains, not shown: another chain or arm of the molecule) constant: ASTTAPSVFPLAPSCGTTSGATVALACLVLGYFPEPVTVSWNSGALTSGVHTFPAVLQASGLYSLSSMVTVPSSRWLSDTFTCNVAHPPSNTKVDKTVRKTDHPPGPKPCDCPKCPPPEMLGGPSIFIFPPKPKDTLHISRTPEVTCLVVDLGPDDSDVQITWFVDNTQVYTAKTSPREEQFNSTYRVVSVLPILHQPWLKGKEFKCKVNSKSLPSPIERTISKAKGQPHEPQVYVLPPAQEELSRNKVSVTCLIKSFHPPDIAVEWEITGQPEPENNYRTTPPQLDSDGTYFVYSKLSVDRSHWQRGNTYTCSVMHEALHSHHTQKSLTQSPGK ; retrieve measured pKd.
8.09

Param item = feline IgG1a A431R (antibody, part only; not given: Variable domains, not shown: another chain or arm of the molecule) constant: ASTTAPSVFPLAPSCGTTSGATVALACLVLGYFPEPVTVSWNSGALTSGVHTFPAVLQASGLYSLSSMVTVPSSRWLSDTFTCNVAHPPSNTKVDKTVRKTDHPPGPKPCDCPKCPPPEMLGGPSIFIFPPKPKDTLSISRTPEVTCLVVDLGPDDSDVQITWFVDNTQVYTAKTSPREEQFNSTYRVVSVLPILHQDWLKGKEFKCKVNSKSLPSPIERTISKAKGQPHEPQVYVLPPAQEELSRNKVSVTCLIKSFHPPDIAVEWEITGQPEPENNYRTTPPQLDSDGTYFVYSKLSVDRSHWQRGNTYTCSVSHERLHSHHTQKSLTQSPGK ; retrieve measured pKd.
8.17
